SYSTEM: Virion infectivity factor (Human immunodeficiency virus type 1 group M subtype B (isolate BH10)) + Virion infectivity factor (Human immunodeficiency virus type 1 group M subtype B (isolate BRU/LAI)) + Virion infectivity factor (Human immunodeficiency virus type 1 group M subtype B (isolate PCV12)) + Virion infectivity factor (Human immunodeficiency virus type 1 group M subtype B (isolate HXB2)) + DNA dC->dU-editing enzyme APOBEC-3G (Homo sapiens) (UniProt P69720+P69721+P69722+P69723+Q9HC16)
MEASUREMENT DESCRIPTION: inhibitors of Vif binding to APOBEC3G peptide, primary screen, biochemical, TR-FRET, GST-Vif 1-94, biotin-A3G peptide, dose response retest (AID 1117319);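 note: Vif residues 1-94 fused to GST binding biotinylated APOBEC3G peptide 110-148; 0% = full assay without inhibitor and 100% = GST in place of GST-Vif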
CONDITION PARAMETERS: active compounds read high
Screen size: about 260,000 compounds; about 1,500 (0.58%) were called active. Not shown: some 5% with an inconclusive outcome. The list is a sample of the results. Results with a measured potency or affinity are listed apart.
READOUT LABEL: inhibition (%)
Give bare numbers, in %.

// known answers, use as guide
COMPOUND | inhibition, %
CC(Nc1nc(-c2ccccc2O)nc2ccccc12)c1ccccc1 (configuration not stated) | 4.08
Cn1cccc1/C=C1\CC(C(C)(C)C)C/C(=C\c2cccn2C)C1=O (configuration not stated) | 1.11
CCC1CCCCN1C(=O)c1ccccc1OC1CCN(S(C)(=O)=O)CC1 (configuration not stated) | 6.69
O=C(COC(=O)c1c2c(nc3ccccc13)/C(=C/c1cccc([N+](=O)[O-])c1)CCC2)NC1CCS(=O)(=O)C1 (configuration not stated) | 29.1
CCOc1ccc(NC(=O)c2cc3c(=O)n(C)c4ccccc4c3n2C)cc1 | -12
CCOC(=O)C(=NC1CCS(=O)(=O)C1)NNc1cc(Cl)ccc1Cl (configuration not stated) | 11.7
O=C1OC2(c3ccccc31)c1ccccc1-c1ccccc12 | -7.13
O=C(c1ccco1)N1CCN(Cc2cc(=O)c(OCc3cccc(F)c3)co2)CC1 | -1.67
O=C1NC(=O)/C(=C\c2cn(CC(=O)N3CCOCC3)c3ccccc23)S1 | -3.19
Cc1ccc(N=C2NC(=O)/C(=C/c3cccn3C)S2)cc1C | -3.5

Please go through the list and note inhibition for each compound.
1. COc1ccc(-n2c(=O)c(CCC(=O)N(C)Cc3cccs3)nc3ccccc32)cc1
2. CNC(=O)COC(=O)c1cc2c(s1)CCCC2

# output
-5.63
0.25

State recorded inhibition for all listed compounds.
1. CC1CCCCC1NC(=O)COC(=O)c1c2c(nc3ccccc13)/C(=C\c1ccco1)CC2 (configuration not stated)
2. Cc1cc(=O)oc2cc(NC(=O)c3ccnn3C)ccc12

# output
1: 4.28; 2: -5.65

Could you report inhibition for every entry in the following list?
1. Cc1ccc(CN(C)C(=O)CN2C(=O)NC3(CCCc4ccccc43)C2=O)c(C)c1 (configuration not stated)
2. CCn1cc[n+](C)c1P(c1ccccc1)c1ccccc1
3. CCc1ccc(CN(C)Cc2nc(Cc3ccc(OC)c(OC)c3)no2)nc1

# output
[-3.76, 3.82, -3.31]

---

Assign inhibition to each entry below.
SYSTEM: Virion infectivity factor (Human immunodeficiency virus type 1 group M subtype B (isolate BH10)) + Virion infectivity factor (Human immunodeficiency virus type 1 group M subtype B (isolate BRU/LAI)) + Virion infectivity factor (Human immunodeficiency virus type 1 group M subtype B (isolate PCV12)) + Virion infectivity factor (Human immunodeficiency virus type 1 group M subtype B (isolate HXB2)) + DNA dC->dU-editing enzyme APOBEC-3G (Homo sapiens) (UniProt P69720+P69721+P69722+P69723+Q9HC16)
MEASUREMENT DESCRIPTION: inhibitors of Vif binding to APOBEC3G peptide, primary screen, biochemical, TR-FRET, GST-Vif 1-94, biotin-A3G peptide, dose response retest (AID 1117319);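 note: Vif residues 1-94 fused to GST binding biotinylated APOBEC3G peptide 110-148; 0% = full assay without inhibitor and 100% = GST in place of GST-Vif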
CONDITION PARAMETERS: active compounds read high
The campaign covered roughly 260,000 compounds. About 1,500 (0.58%) were called active. About 5% were inconclusive and are not listed. A selection follows. Entries with a potency or affinity are not part of this list.

Known results for molecules:
MOLECULE | OBSERVED VALUE
CC(=O)OC1CC[C@@]2(C)C(CCC3C2CC(=O)[C@@]2(C)C3CC3CC(C)=CC(=O)C32)C1 (stereo not given in full) | -1.09% (inactive)
CN(C)S(=O)(=O)c1ccc(N2CCCC2)c(C(=O)Nc2nc3c(ccc4ccccc43)s2)c1 | -35.6% (inactive)
COCC(=O)N(CCc1ccc(OC)cc1)Cc1nc2ccccc2c(=O)[nH]1 | 0.5% (inactive)

# batch size: 2; output inhibition per entry
1. O=C(O)CCCN1C(=O)C2C3CCC(C3)C2C1=O (stereo not given)
2. Cc1ccc(S(=O)(=O)NCc2nnc(SCC(=O)Nc3cccc(C)c3C)n2C)cc1

# output
6.83% (inactive)
-1.43% (inactive)
